// data source = PubChem BioAssay (NCATS)

Item-by-item account of activity change, negative = inhibition
MEASUREMENT PROTOCOL: qHTS Assay for Lipid Storage Modulators (AID 1519); also: % is scaled to controls: 0 for no effect and ±100 for the full control effect
RUN PARAMETERS: Drosophila S3 cells, BODIPY lipid droplet/cell ratio, laser cytometry; at 25.7 µM (top of the series); cells loaded with oleic acid
Results filed as inconclusive are left out.
Numeric answer only, unit % assumed.

Reference set (4 entries):
CN1CCC(=C2c3ccccc3CC(=O)c3sccc32)CC1; -3.11
CN1CCC(=C2c3ccccc3C=Cc3ccccc32)CC1; -4.01
CN(C)CCCN1c2ccccc2CCc2ccc(Cl)cc21; -2.54
COC(=O)Nc1nc2ccc(C(=O)c3cccs3)cc2[nH]1; -7.22

Recorded activity change, negative = inhibition (compound Cc1cnc(C(=O)NCCc2ccc(S(=O)(=O)NC(=O)NC3CCCCC3)cc2)cn1 ): 1.51

The value of activity change, negative = inhibition measured for the compound CN(C)C(=N)N=C(N)N turned out to be 1.15

Looking up CS(=O)(=O)Nc1ccc([N+](=O)[O-])cc1Oc1ccccc1 , I found its activity change, negative = inhibition recorded as -1.76

// sample CN1CCN(CCCN2c3ccccc3Sc3ccc(Cl)cc32)CC1 , its activity change, negative = inhibition was -2.25

// activity change, negative = inhibition lookup, compound = Clc1ccc2c(c1)C(N1CCNCC1)=Nc1ccccc1O2 , result: -5.1

Kindly note the recorded activity change, negative = inhibition for CCC1(c2ccccc2)C(=O)NCNC1=O , which is -1.4

activity change, negative = inhibition recorded for this compound, NC12CC3CC(CC(C3)C1)C2 , is -3.08

Query O=C(c1ccc(OCCN2CCCCC2)cc1)c1c(-c2ccc(O)cc2)sc2cc(O)ccc12 yields activity change, negative = inhibition of -1.98

====

MEASUREMENT PROTOCOL: Quantitative High-Throughput drug screen in 47 multiple myeloma cell lines against the NCATS MIPE library collection: KMM1_JCRB cell viability assay (AID 1918960); also: nearly all actives have a fitted effect of over 30% in size
RUN PARAMETERS: KMM1 myeloma viability, CellTiter-Glo ATP luminescence, 48 h; series mostly up to 45.8 µM
Results filed as inconclusive are left out. The source made the active and inactive calls. Calls follow the shape of the dose curve; as a rule, active = well fitted cell-killing curve with a large enough effect; inconclusive = small, poorly fitted or top-dose-only effect, or effect the other way; inactive = no such curve, though single readings can be large or run the other way.
The categories you may choose from are active, inactive

Example entries begin here.
CC(COc1ccccc1)N(CCCl)Cc1ccccc1 (centres undefined); inactive
NC(=O)NO; active
CC[N+](CC)(CC)CCOc1cccc(OCC[N+](CC)(CC)CC)c1OCC[N+](CC)(CC)CC; inactive
COc1cc2nc(N3CCN(C(=O)C4COc5ccccc5O4)CC3)nc(N)c2cc1OC (centres undefined); active

## Input Could you kindly confirm the outcome this assay logged for CC(C)NCC(O)c1ccc(O)c(O)c1 (centres undefined) ?
## Output active

## Input Please share the test call associated with CC(C)C(=O)Nc1ccc([N+](=O)[O-])c(C(F)(F)F)c1 .
## Output active

## Input For this molecule, state the assay outcome: CCOC(=O)c1ncn2c1CN(C)C(=O)c1cc(F)ccc1-2
## Output inactive

## Input Would you mind telling me which call this test gave CC(CCc1ccc(O)cc1)NCCc1ccc(O)c(O)c1 (centres undefined) ?
## Output active

## Input # fetch the recorded call for N[C@@H](Cc1c[nH]c2ccc(O)cc12)C(=O)O here
## Output active

====

MEASUREMENT PROTOCOL: qHTS for differential inhibitors of proliferation of Plasmodium falciparum line GB4 (AID 1816);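 also: parasite growth measured after 72 h incubation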
RUN PARAMETERS: Plasmodium falciparum GB4 proliferation inhibition; series mostly up to 28.7 µM
Inconclusive results are not listed. The source made the active and inactive calls. Calls follow the shape of the dose curve; as a rule, active = well fitted curve in the direction sought with a large enough effect; inconclusive = small, poorly fitted or top-dose-only effect, or another doubt; inactive = no such curve, though single readings can be large or run the other way.
Give your call using only these classes: true (1) for active, false (0) for inactive

COc1ccccc1N1CCN(CC(O)COc2cccc3ccccc23)CC1 (stereo unspecified); true (1)

## Input Assay outcome for CN1CCC(=C2c3ccccc3CC(=O)c3sccc32)CC1 : what was it?
## Output true (1)

## Input Lab log entry: CN(Cc1cnc2nc(N)nc(N)c2n1)c1ccc(C(=O)N[C@@H](CCC(=O)O)C(=O)O)cc1 — outcome as called in the assay?
## Output true (1)

====

Tested on: CP203
MEASUREMENT PROTOCOL: qHTS profiling for inhibitors of Plasmodium falciparum proliferation (AID 504749); also: nearly all actives have a fitted effect of over 60% in size
RUN PARAMETERS: P. falciparum in erythrocytes, SYBR Green DNA, 72 h; series mostly up to 28.7 µM
Results filed as inconclusive are left out. Calls of active or inactive are those of the source. Calls follow the shape of the dose curve; as a rule, active = well fitted inhibition curve with a large enough effect; inconclusive = small, poorly fitted or top-dose-only effect; inactive = flat fitted curve, though single readings scatter.
A correct response names exactly one class from active, inactive

// known answers, use as guide
N[C@@H](Cc1c[nH]c2ccc(O)cc12)C(=O)O; inactive
CN(Cc1cnc2nc(N)nc(N)c2n1)c1ccc(C(=O)N[C@@H](CCC(=O)O)C(=O)O)cc1; inactive
NCCS(=O)(=O)O; inactive
COc1ccccc1OCC(O)CN1CCN(CC(=O)Nc2c(C)cccc2C)CC1 (stereo not given); inactive
Cc1ccc(C(=O)Nc2ccc(S(=O)(=O)O)c3cc(S(=O)(=O)O)cc(S(=O)(=O)O)c23)cc1NC(=O)c1cccc(NC(=O)Nc2cccc(C(=O)Nc3cc(C(=O)Nc4ccc(S(=O)(=O)O)c5cc(S(=O)(=O)O)cc(S(=O)(=O)O)c45)ccc3C)c2)c1; inactive
Clc1ccc2c(c1)C(N1CCNCC1)=Nc1ccccc1O2; inactive
CC(C)C(=O)Nc1ccc([N+](=O)[O-])c(C(F)(F)F)c1; inactive
NS(=O)(=O)c1cc2c(cc1Cl)NCNS2(=O)=O; inactive
CN(CCOc1ccc(NS(C)(=O)=O)cc1)CCc1ccc(NS(C)(=O)=O)cc1; inactive
CN1CCC(=C2c3ccccc3CC(=O)c3sccc32)CC1; active

## Input Answer briefly: the call reported for Cc1cn([C@H]2C[C@H](N=[N+]=[N-])[C@@H](CO)O2)c(=O)[nH]c1=O in this assay.
## Output inactive

## Input Assay result, entry NCCCCCC(=O)O — outcome?
## Output inactive

## Input I would be grateful if you could indicate the recorded call for C[C@](N)(Cc1ccc(O)c(O)c1)C(=O)O .
## Output inactive

## Input Identify the outcome logged in this assay for the compound shown: CN1CCN2c3ccccc3Cc3ccccc3C2C1 (stereo not given)
## Output inactive

## Input Which outcome did this test record for the compound CC[N+](CC)(CC)CCOc1cccc(OCC[N+](CC)(CC)CC)c1OCC[N+](CC)(CC)CC ?
## Output inactive

====

MEASUREMENT PROTOCOL: Stat Signaling Pathway (AID 446);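 also: ME-180 cervical cancer cells given 40 pM IL-6 alongside compound; SIE-controlled beta-lactamase reporter measured as 460/530 nm FRET emission ratio; % is scaled to controls: 0 for no effect and ±100 for the full control effect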
RUN PARAMETERS: ME-180 (cervical carcinoma) SIE beta-lactamase reporter, IL-6 stimulated, 5 h; series mostly up to 17.2 µM
Inconclusive results are not listed. Activity calls are given as the source filed them. Calls follow the shape of the dose curve; as a rule, active = well fitted curve in either direction with a large enough effect (not every such curve was filed as active); inconclusive = small, poorly fitted or top-dose-only effect, or another doubt; inactive = flat fitted curve, though single readings scatter.
MEASURE: outcome

Before answering, review these 10 worked examples.
NC(CO)C(=O)NNCc1ccc(O)c(O)c1O (stereo unspecified); inactive
O=C1N(c2ccccc2)c2ccccc2C1(Cc1ccncc1)Cc1ccncc1; inactive
O=C(CCCN1CCC(O)(c2ccc(Cl)cc2)CC1)c1ccc(F)cc1; inactive
CN(C)c1nc(N(C)C)nc(N(C)C)n1; inactive
CCc1cccc2c3c([nH]c12)C(CC)(CC(=O)O)OCC3 (stereo unspecified); inactive
Cn1cnc2c1c(=O)[nH]c(=O)n2C; inactive
Cn1c(=O)c2c(ncn2C)n(C)c1=O; inactive
CN1C(C(=O)Nc2ccccn2)=C(O)c2ccccc2S1(=O)=O; inactive
CN1CCC(=C2c3ccccc3C=Cc3ccccc32)CC1; inactive
CN1CCN2c3ccccc3Cc3ccccc3C2C1 (stereo unspecified); inactive

// recorded outcome for CCOC(=O)Nc1ccc(NCc2ccc(F)cc2)nc1N : inactive

For this compound ( COc1ccc2[nH]cc(CCNC(C)=O)c2c1 ), measured outcome is inactive

Form field outcome, entry CNCCCC12CCC(c3ccccc31)c1ccccc12 : inactive

Data point: COc1ccccc1N1CCN(CC(O)COc2cccc3ccccc23)CC1 (stereo unspecified) ; outcome = inactive

Noted for COc1cc2nc(N3CCN(C(=O)c4ccco4)CC3)nc(N)c2cc1OC : its outcome reads inactive

Form field outcome, entry CN1CCN(C2=Nc3cc(Cl)ccc3Nc3ccccc32)CC1 : inactive

Lab note: CCCCc1oc2ccccc2c1C(=O)c1cc(I)c(OCCN(CC)CC)c(I)c1 gave outcome of inactive

Reported outcome of Cn1ccc2cc3c(cc21)CCN3C(=O)Nc1cccnc1 : inactive

Looking up O=c1[nH]cc(F)c(=O)[nH]1 , I found its outcome recorded as inactive

Looking up COc1ccc(CCN(C)CCCC(C#N)(c2ccc(OC)c(OC)c2)C(C)C)cc1OC (stereo unspecified) , I found its outcome recorded as inactive

Lab note: measured outcome of O=C(c1ccc(F)cc1)C1CCN(CCn2c(=O)[nH]c3ccccc3c2=O)CC1 was inactive

====

MEASUREMENT PROTOCOL: qHTS Screen of the MIPE 4.0 Collection Against Ewings Sarcoma (RDES) (AID 1259252); also: nearly all actives have a fitted effect of over 35% in size
RUN PARAMETERS: RD-ES Ewing sarcoma viability, CellTiter-Glo, 48 h; series mostly up to 45.8 µM
Results filed as inconclusive are left out. Activity calls are given as the source filed them. Calls follow the shape of the dose curve; as a rule, active = well fitted inhibition curve with a large enough effect; inconclusive = small, poorly fitted or top-dose-only effect; inactive = no such curve, though single readings can be large or run the other way.
Your answer must be one of the following: class 1 for active, class 0 for inactive

Nc1nc2c(ncn2COC(CO)CO)c(=O)[nH]1; class 1
CCN1CCCC1CNC(=O)c1cc(S(=O)(=O)CC)c(N)cc1OC (stereo not given); class 0
O=C(c1ccc(F)cc1)C1CCN(CCn2c(=O)[nH]c3ccccc3c2=O)CC1; class 0
O=c1c(O)c(-c2ccc(O)c(O)c2)oc2cc(O)cc(O)c12; class 1
CN1CCN(C2=Nc3cc(Cl)ccc3Nc3ccccc32)CC1; class 0
O=C(c1ccc(OCCN2CCCCC2)cc1)c1c(-c2ccc(O)cc2)sc2cc(O)ccc12; class 1
NS(=O)(=O)c1cc2c(cc1Cl)NCNS2(=O)=O; class 0
CC#C[C@]1(O)CC[C@H]2[C@@H]3CCC4=CC(=O)CCC4=C3[C@@H](c3ccc(N(C)C)cc3)C[C@@]21C; class 1

## Input What was the test verdict on NCCS(=O)(=O)O ?
## Output class 0

## Input Called result for CN1CCC(=C2c3ccccc3C=Cc3ccccc32)CC1
## Output class 1

## Input Would you mind telling me which call this test gave COc1cc2nc(N(C)CCCNC(=O)C3CCCO3)nc(N)c2cc1OC (stereo not given) ?
## Output class 0

## Input Name the outcome recorded for CN1CCN2c3ccccc3Cc3ccccc3C2C1 (stereo not given) in the assay.
## Output class 1

## Input What outcome does the record of this test show for Cc1ccccc1N1C(=O)c2cc(S(N)(=O)=O)c(Cl)cc2NC1C (stereo not given) ?
## Output class 0

## Input Tell me the recorded outcome of this test for O=c1[nH]cc(F)c(=O)[nH]1 .
## Output class 1

## Input What was the test verdict on CN(C)CCCN1c2ccccc2CCc2ccc(Cl)cc21 ?
## Output class 1

## Input Kindly provide the recorded test outcome for the following molecule: CCc1cccc2c3c([nH]c12)C(CC)(CC(=O)O)OCC3 (stereo not given)
## Output class 0

## Input How did this test come out for CC(C)Cc1ccc(C(C)C(=O)O)cc1 (stereo not given) ?
## Output class 0

## Input Please share the test call associated with CC(C)NCC(O)COc1ccc(CCOCC2CC2)cc1 (stereo not given) .
## Output class 0

## Input Which outcome was entered for the molecule CC1(CN2CCC(n3c(=O)[nH]c4ccccc43)CC2)OCc2ccccc2-n2cccc21 (stereo not given) in this test?
## Output class 1

## Input Outcome logged for O=C(Nc1ccc([N+](=O)[O-])cc1Cl)c1cc(Cl)ccc1O in this assay:
## Output class 1
